target: Thyrotropin receptor (Homo sapiens) (UniProt P16473); test: qHTS assay to identify small molecule agonists of the thyroid stimulating hormone receptor (TSHR) signaling pathway (AID 1224843); settings: TSHR-HEK293 cells, cAMP HTRF, agonist mode, 30 min; series mostly up to 92.4 µM; note: nearly all actives have a fitted effect of over 45% in size
Sequence (P16473 whole entry, looked up): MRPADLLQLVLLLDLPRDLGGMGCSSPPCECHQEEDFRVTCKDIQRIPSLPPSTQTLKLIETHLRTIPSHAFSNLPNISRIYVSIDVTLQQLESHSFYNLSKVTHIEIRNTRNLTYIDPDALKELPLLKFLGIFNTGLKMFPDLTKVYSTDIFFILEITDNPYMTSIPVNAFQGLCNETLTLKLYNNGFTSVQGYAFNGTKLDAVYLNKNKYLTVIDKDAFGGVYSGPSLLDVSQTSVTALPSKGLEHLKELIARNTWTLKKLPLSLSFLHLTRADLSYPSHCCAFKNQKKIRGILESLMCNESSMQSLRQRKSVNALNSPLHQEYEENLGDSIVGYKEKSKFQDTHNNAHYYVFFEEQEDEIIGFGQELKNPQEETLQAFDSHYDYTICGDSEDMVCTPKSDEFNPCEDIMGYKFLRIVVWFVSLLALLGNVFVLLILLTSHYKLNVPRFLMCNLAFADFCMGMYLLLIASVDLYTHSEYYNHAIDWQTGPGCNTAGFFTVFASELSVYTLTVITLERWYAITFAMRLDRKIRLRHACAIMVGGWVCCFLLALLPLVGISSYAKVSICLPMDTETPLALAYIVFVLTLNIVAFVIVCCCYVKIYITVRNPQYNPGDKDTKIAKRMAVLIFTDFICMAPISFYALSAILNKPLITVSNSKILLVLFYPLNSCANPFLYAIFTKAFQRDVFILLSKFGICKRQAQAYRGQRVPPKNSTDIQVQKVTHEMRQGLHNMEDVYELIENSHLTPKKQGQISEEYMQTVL
Inconclusive results are not listed. Activity calls are given as the source filed them. Calls come from the whole dose curve.
quantityKind: outcome

{"compound": "c1ccc(C[n+]2cccc3ccccc32)cc1", "quantityKind": "outcome", "recordedMeasurement": "inactive"}
{"compound": "CC(C)=CCC1C(=O)N(c2ccccc2)N(c2ccccc2)C1=O", "quantityKind": "outcome", "recordedMeasurement": "inactive"}
{"compound": "CCCCCCCCC(CCCCCC)C(=O)O (stereo unspecified)", "quantityKind": "outcome", "recordedMeasurement": "inactive"}
{"compound": "O=c1c(O)c(-c2ccc(O)cc2)oc2cc(O)cc(O)c12", "quantityKind": "outcome", "recordedMeasurement": "inactive"}
{"compound": "CO/N=C(/C(=O)N[C@@H]1C(=O)N2C(C(=O)O)=C(COC(N)=O)CS[C@H]12)c1ccco1", "quantityKind": "outcome", "recordedMeasurement": "inactive"}
{"compound": "CC(C)C=O", "quantityKind": "outcome", "recordedMeasurement": "inactive"}
{"compound": "C1C[C@@H]2[C@H]3CC[C@H](C3)[C@@H]2C1", "quantityKind": "outcome", "recordedMeasurement": "inactive"}
{"compound": "Cc1ccc(CO)cc1", "quantityKind": "outcome", "recordedMeasurement": "inactive"}
{"compound": "CC(=O)NC1(c2cccc(F)c2)CCN(CC[C@@]2(c3ccc(Cl)c(Cl)c3)CN(c3ccccc3)C(=O)CO2)CC1", "quantityKind": "outcome", "recordedMeasurement": "inactive"}
{"compound": "CCC1CO1 (stereo unspecified)", "quantityKind": "outcome", "recordedMeasurement": "inactive"}
{"compound": "CC=C(Cl)Cl", "quantityKind": "outcome", "recordedMeasurement": "inactive"}
{"compound": "NC1[C@H]2CN(c3nc4c(cc3F)c(=O)c(C(=O)O)cn4-c3ccc(F)cc3F)C[C@@H]12 (stereo partly specified)", "quantityKind": "outcome", "recordedMeasurement": "inactive"}
{"compound": "CC1CC(OC(=O)C(O)c2ccccc2)CC(C)(C)N1C (stereo unspecified)", "quantityKind": "outcome", "recordedMeasurement": "inactive"}
{"compound": "COC(=O)C1=C(C)NC(C)=C(C(=O)O[C@@H]2CCCN(Cc3ccccc3)C2)[C@@H]1c1cccc([N+](=O)[O-])c1", "quantityKind": "outcome", "recordedMeasurement": "inactive"}
{"compound": "CN(C)CCN1C(=O)c2ccccc2N(C)c2ccccc21", "quantityKind": "outcome", "recordedMeasurement": "inactive"}
{"compound": "O=C(O)CCC(=O)C(=O)O", "quantityKind": "outcome", "recordedMeasurement": "inactive"}
{"compound": "NC(=O)c1ccncc1", "quantityKind": "outcome", "recordedMeasurement": "inactive"}
{"compound": "CC(=O)OCC(=O)NCCCOc1cccc(CN2CCCCC2)c1", "quantityKind": "outcome", "recordedMeasurement": "inactive"}
{"compound": "CCCCN1CCCC1C(=O)Nc1c(C)cc(C)cc1C (stereo unspecified)", "quantityKind": "outcome", "recordedMeasurement": "inactive"}
{"compound": "CCCCC(CC)CN (stereo unspecified)", "quantityKind": "outcome", "recordedMeasurement": "inactive"}
{"compound": "CN1CC(=O)N2[C@H](c3ccc4c(c3)OCO4)c3[nH]c4ccccc4c3C[C@@H]2C1=O", "quantityKind": "outcome", "recordedMeasurement": "inactive"}
{"compound": "Brc1cc(Br)c(Oc2cc(Br)c(Br)cc2Br)cc1Br", "quantityKind": "outcome", "recordedMeasurement": "inactive"}
{"compound": "O=c1[nH]c2ccc(Cl)cc2o1", "quantityKind": "outcome", "recordedMeasurement": "inactive"}
{"compound": "CCOC(=O)C1=C(C)NC(C)=C(C(=O)OC)C1c1cccc(Cl)c1Cl (stereo unspecified)", "quantityKind": "outcome", "recordedMeasurement": "inactive"}
{"compound": "O=C(O)C[C@H](NC(=O)OCc1ccccc1)C(=O)O", "quantityKind": "outcome", "recordedMeasurement": "inactive"}
{"compound": "CC(=O)c1cc2ccccc2s1", "quantityKind": "outcome", "recordedMeasurement": "inactive"}
